# Assay Overview: physchem
Listed below: logD values for each entry.

Smiles Entry | logD
CN(C)c1ncnc2c1ncn2[C@@H]1O[C@H](CSc2nc3ccccc3s2)[C@@H](O)[C@H]1O | 1.8
Nc1ncnc2c1ncn2[C@@H]1O[C@H](CNc2nc3ccccc3s2)[C@@H](O)[C@H]1O | 0.7
Nc1ncnc2c1ncn2[C@@H]1O[C@H](COc2nc3ccccc3s2)[C@@H](O)[C@H]1O | 0.5
CC(C)Nc1ncnc2c1ncn2[C@@H]1O[C@H](CSc2nc3ccccc3s2)[C@@H](O)[C@H]1O | 2.1

###

# Measurement Target: human RNMT (Homo sapiens)
# Sequence (O43148 whole entry): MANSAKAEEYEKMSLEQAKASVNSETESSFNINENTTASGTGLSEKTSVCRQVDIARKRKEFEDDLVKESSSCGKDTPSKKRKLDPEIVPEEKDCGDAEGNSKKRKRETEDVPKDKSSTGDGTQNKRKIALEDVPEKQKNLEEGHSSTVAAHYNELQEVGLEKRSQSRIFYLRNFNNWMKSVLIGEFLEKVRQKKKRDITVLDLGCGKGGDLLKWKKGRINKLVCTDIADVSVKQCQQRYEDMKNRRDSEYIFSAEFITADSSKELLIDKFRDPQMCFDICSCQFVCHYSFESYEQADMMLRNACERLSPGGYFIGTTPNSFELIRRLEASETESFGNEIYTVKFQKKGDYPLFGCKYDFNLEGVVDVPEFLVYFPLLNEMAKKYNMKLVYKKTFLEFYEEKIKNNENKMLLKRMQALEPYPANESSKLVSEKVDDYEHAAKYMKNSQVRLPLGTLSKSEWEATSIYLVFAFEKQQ
# Assay Overview: RNMT methyltransferase assay (Gray et al.)
# Type: biochemical
pIC50: −log10 of the molar value.

Smiles Entry | pIC50
Nc1ncnc2c1ncn2[C@@H]1O[C@H](CSc2nccs2)[C@@H](O)[C@H]1O | < 4.00
Nc1ncnc2c1ncn2[C@@H]1O[C@H](CSc2ccc3ccccc3n2)[C@@H](O)[C@H]1O | < 4.00
Nc1ncnc2c1ncn2[C@@H]1O[C@H](CSc2ccn3cncc3c2)[C@@H](O)[C@H]1O | 4.51
CCNC(=O)NCCSC[C@H]1O[C@@H](n2cnc3c(N)ncnc32)[C@H](O)[C@@H]1O | < 4.00
Nc1ncnc2c1ncn2[C@@H]1O[C@H](CSc2nc3ccccc3o2)[C@@H](O)[C@H]1O | < 4.00
Nc1ncnc2c1ncn2[C@@H]1O[C@H](CSc2cccn3cncc23)[C@@H](O)[C@H]1O | 5.03
Cc1ccc2nc(SC[C@H]3O[C@@H](n4cnc5c(N)ncnc54)[C@H](O)[C@@H]3O)sc2c1 | < 4.00
Nc1ncnc2c1ccn2[C@@H]1O[C@H](CSc2nc3ccccc3s2)[C@@H](O)[C@H]1O | < 4.00
CCc1cn([C@@H]2O[C@H](CSc3nc4ccccc4s3)[C@@H](O)[C@H]2O)c2ncnc(N)c12 | < 4.00
Nc1ncnc2c1ncn2[C@@H]1O[C@H](/C=C/c2nc3ccccc3s2)[C@@H](O)[C@H]1O | < 4.00
C#Cc1cn([C@@H]2O[C@H](CSc3nc4ccccc4s3)[C@@H](O)[C@H]2O)c2ncnc(N)c12 | < 4.00
Cc1ccc2nc(SC[C@H]3O[C@@H](n4cnc5c(N)ncnc54)[C@H](O)[C@@H]3O)ccc2c1 | < 4.00
Cc1ccc2sc(SC[C@H]3O[C@@H](n4cnc5c(N)ncnc54)[C@H](O)[C@@H]3O)nc2c1 | < 4.00
CCCCCCSC[C@H]1O[C@@H](n2cnc3c(N)ncnc32)[C@H](O)[C@@H]1O | < 4.00
Nc1ncnn2c([C@@H]3O[C@H](CNS(=O)(=O)c4ccc5ccccc5c4)[C@@H](O)[C@H]3O)ccc12 | 4.56

###

# Assay Overview: physchem
Listed below: logD values for each entry.
Quantity Name: logD

Smiles Entry | Quantity Name | Measured Value
Nc1ncnc2c1ncn2[C@@H]1O[C@H](CSc2ccc3cccnc3c2)[C@@H](O)[C@H]1O | logD | 0.6
CCCCCCSC[C@H]1O[C@@H](n2cnc3c(N)ncnc32)[C@H](O)[C@@H]1O | logD | 2
Cc1ccc2ccc(SC[C@H]3O[C@@H](n4cnc5c(N)ncnc54)[C@H](O)[C@@H]3O)nc2c1 | logD | 1.7
Nc1ncnc2c1ncn2[C@@H]1O[C@H](CSc2ccc3ccccc3c2)[C@@H](O)[C@H]1O | logD | 1.8
CCNC(=O)NCCSC[C@H]1O[C@@H](n2cnc3c(N)ncnc32)[C@H](O)[C@@H]1O | logD | -0.2
Nc1ncnc2c1ncn2[C@@H]1O[C@H](CSc2ccc3ccccc3n2)[C@@H](O)[C@H]1O | logD | 1.3
Nc1ncnc2c1ncn2[C@@H]1O[C@H](CSc2nc3ccccc3s2)[C@@H](O)[C@H]1O | logD | 1.2
Cc1ccc2nc(SC[C@H]3O[C@@H](n4cnc5c(N)ncnc54)[C@H](O)[C@@H]3O)sc2c1 | logD | 1.6
Nc1ncnc2c1ncn2[C@@H]1O[C@H](CSc2nccs2)[C@@H](O)[C@H]1O | logD | 0.3
Cc1ccc2nc(SC[C@H]3O[C@@H](n4cnc5c(N)ncnc54)[C@H](O)[C@@H]3O)ccc2c1 | logD | 1.7
Nc1ncnc2c1ncn2[C@@H]1O[C@H](CSc2cccn3cncc23)[C@@H](O)[C@H]1O | logD | 0.3
Cc1ccc2sc(SC[C@H]3O[C@@H](n4cnc5c(N)ncnc54)[C@H](O)[C@@H]3O)nc2c1 | logD | 1.6

###

# Assay Overview: physchem
Quantity Name: logD

Smiles Entry | Quantity Name | Measured Value
Nc1ncnn2c([C@@H]3O[C@H](CSc4nc5ccccc5s4)[C@@H](O)[C@H]3O)ccc12 | logD | 1.5
Nc1ncnc2c1ncn2[C@@H]1O[C@H](CSc2nc3ccccc3[nH]2)[C@@H](O)[C@H]1O | logD | 0.3
Nc1ncnn2c([C@@H]3O[C@H](/C=C/c4nc5ccccc5s4)[C@@H](O)[C@H]3O)ccc12 | logD | 1.5
Cc1ccc2nc(SC[C@H]3O[C@@H](c4ccc5c(N)ncnn45)[C@H](O)[C@@H]3O)sc2c1 | logD | 1.9
Nc1ncnc2c1ncn2[C@@H]1O[C@H](CSc2nc3ccccc3o2)[C@@H](O)[C@H]1O | logD | 1
Nc1ncnc2c1ncn2[C@@H]1O[C@H](/C=C/c2nc3ccccc3s2)[C@@H](O)[C@H]1O | logD | 1.3
Nc1ncnc2c1ncn2[C@@H]1O[C@H](CSc2ccn3cncc3c2)[C@@H](O)[C@H]1O | logD | 0.1

###

# Measurement Target: HCoV-229E nsp14 (Human coronavirus 229E)
# Construct: gene rep
# Sequence (P0C6X1 5593-6110): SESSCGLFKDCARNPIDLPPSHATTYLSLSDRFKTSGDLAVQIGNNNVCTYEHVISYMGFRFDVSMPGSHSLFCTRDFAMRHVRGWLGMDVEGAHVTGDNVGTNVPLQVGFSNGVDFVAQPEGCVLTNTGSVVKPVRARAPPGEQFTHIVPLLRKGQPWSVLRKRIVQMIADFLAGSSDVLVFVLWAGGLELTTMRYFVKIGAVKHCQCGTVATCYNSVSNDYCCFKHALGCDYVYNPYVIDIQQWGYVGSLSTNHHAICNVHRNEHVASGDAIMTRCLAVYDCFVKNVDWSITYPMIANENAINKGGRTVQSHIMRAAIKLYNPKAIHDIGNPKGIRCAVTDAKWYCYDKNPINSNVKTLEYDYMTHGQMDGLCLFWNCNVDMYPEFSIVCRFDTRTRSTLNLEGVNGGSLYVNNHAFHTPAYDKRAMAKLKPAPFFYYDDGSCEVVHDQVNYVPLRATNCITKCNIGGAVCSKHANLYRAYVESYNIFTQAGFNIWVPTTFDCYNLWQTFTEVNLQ
# Assay Overview: RapidFire MS methyltransferase assay
# Assay type: biochemical
# Source text: RapidFire MS methyltransferase assay on HCoV-229E nsp14

Smiles Entry | Measurement Target | Unit Abbrev | IC50
C#Cc1cn([C@@H]2O[C@H](CSc3nc4ccccc4s3)[C@@H](O)[C@H]2O)c2ncnc(N)c12 | HCoV-229E nsp14 (Human coronavirus 229E) | nM | 33
Cc1ccc2nc(SC[C@H]3O[C@@H](n4cnc5c(N)ncnc54)[C@H](O)[C@@H]3O)sc2c1 | HCoV-229E nsp14 (Human coronavirus 229E) | nM | 410
Cc1ccc2nc(SC[C@H]3O[C@@H](n4cnc5c(N)ncnc54)[C@H](O)[C@@H]3O)ccc2c1 | HCoV-229E nsp14 (Human coronavirus 229E) | nM | 1900
Cc1ccc2ccc(SC[C@H]3O[C@@H](n4cnc5c(N)ncnc54)[C@H](O)[C@@H]3O)nc2c1 | HCoV-229E nsp14 (Human coronavirus 229E) | nM | 1400
N#Cc1cn([C@@H]2O[C@H](CSc3nc4ccccc4s3)[C@@H](O)[C@H]2O)c2ncnc(N)c12 | HCoV-229E nsp14 (Human coronavirus 229E) | nM | 100
CCCCCCSC[C@H]1O[C@@H](n2cnc3c(N)ncnc32)[C@H](O)[C@@H]1O | HCoV-229E nsp14 (Human coronavirus 229E) | nM | 9000

###

# Measurement Target: MERS-CoV nsp14 (Betacoronavirus England 1, UniProt K9N7C7)
# Sequence (K9N7C7 5909-6432 limits assumed): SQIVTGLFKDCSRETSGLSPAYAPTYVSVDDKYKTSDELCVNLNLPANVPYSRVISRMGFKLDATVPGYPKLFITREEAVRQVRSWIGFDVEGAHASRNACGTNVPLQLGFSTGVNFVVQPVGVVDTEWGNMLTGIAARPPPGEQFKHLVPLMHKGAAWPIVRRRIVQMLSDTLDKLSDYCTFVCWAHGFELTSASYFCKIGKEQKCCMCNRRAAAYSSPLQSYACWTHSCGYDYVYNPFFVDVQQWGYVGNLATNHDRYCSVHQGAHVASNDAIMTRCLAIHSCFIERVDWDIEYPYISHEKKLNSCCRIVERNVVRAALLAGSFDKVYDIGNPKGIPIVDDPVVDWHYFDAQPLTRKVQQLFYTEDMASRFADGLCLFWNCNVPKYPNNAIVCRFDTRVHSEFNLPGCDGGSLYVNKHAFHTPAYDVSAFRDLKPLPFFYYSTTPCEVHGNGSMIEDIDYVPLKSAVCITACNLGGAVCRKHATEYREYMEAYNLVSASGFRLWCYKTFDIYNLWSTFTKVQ

Smiles Entry | IC50 [nM]
Nc1ncnc2c1ncn2[C@@H]1C[C@H](CSc2nc3ccccc3s2)[C@@H](O)[C@H]1O | 730

###

# Assay Overview: in vitro
# Parameters: mouse liver microsomal stability
# Run Parameters: liver microsomes; Mouse liver microsomes; read-out: Mouse liver Mic T1/2 / min

Compound | Relation Operator | half-life / min
CCc1cn([C@@H]2O[C@H](CSc3nc4ccccc4s3)[C@@H](O)[C@H]2O)c2ncnc(N)c12 [compound 31] | = | 3.9
Nc1ncnc2c1ncn2[C@@H]1O[C@H](CSc2nc3ccccc3s2)[C@@H](O)[C@H]1O [compound 1] | > | 30
Nc1ncnc2c1ccn2[C@@H]1O[C@H](CSc2nc3ccccc3s2)[C@@H](O)[C@H]1O [compound 27] | > | 30
CCNC(=O)NCCSC[C@H]1O[C@@H](n2cnc3c(N)ncnc32)[C@H](O)[C@@H]1O [compound 5] | > | 30
N#Cc1cn([C@@H]2O[C@H](CSc3nc4ccccc4s3)[C@@H](O)[C@H]2O)c2ncnc(N)c12 [compound 29] | = | 12.1
Nc1ncnc2c1ncn2[C@@H]1O[C@H](CSc2ccc3ccccc3n2)[C@@H](O)[C@H]1O [compound 7] | > | 30
Nc1ncnc2c1ncn2[C@@H]1O[C@H](CNS(=O)(=O)c2ccc3ccccc3c2)[C@@H](O)[C@H]1O [compound 32] | > | 30
Cc1ccc2nc(SC[C@H]3O[C@@H](c4ccc5c(N)ncnn45)[C@H](O)[C@@H]3O)sc2c1 [compound 36] | = | 18
C#Cc1cn([C@@H]2O[C@H](CSc3nc4ccccc4s3)[C@@H](O)[C@H]2O)c2ncnc(N)c12 [compound 30] | = | 10.1
Nc1ncnc2c1ncn2[C@@H]1O[C@H](CCc2nc3ccccc3s2)[C@@H](O)[C@H]1O [compound 25] | > | 30
CCCCCCSC[C@H]1O[C@@H](n2cnc3c(N)ncnc32)[C@H](O)[C@@H]1O [compound 4] | = | 13.2
Cc1ccc2ccc(SC[C@H]3O[C@@H](n4cnc5c(N)ncnc54)[C@H](O)[C@@H]3O)nc2c1 [compound 9] | > | 30
Nc1ncnn2c([C@@H]3O[C@H](CSc4nc5ccccc5s4)[C@@H](O)[C@H]3O)ccc12 [compound 35] | > | 30
Nc1ncnc2c1ncn2[C@@H]1O[C@H](/C=C/c2nc3ccccc3s2)[C@@H](O)[C@H]1O [compound 33] | > | 30
Nc1ncnc2c1ncn2[C@@H]1O[C@H](CSc2ccc3ccccc3c2)[C@@H](O)[C@H]1O [compound 6] | = | 26.9
